- Target Or Test System: Tumor Necrosis Factor-alpha (TNF-α)
- Sequence (P01375 77-233): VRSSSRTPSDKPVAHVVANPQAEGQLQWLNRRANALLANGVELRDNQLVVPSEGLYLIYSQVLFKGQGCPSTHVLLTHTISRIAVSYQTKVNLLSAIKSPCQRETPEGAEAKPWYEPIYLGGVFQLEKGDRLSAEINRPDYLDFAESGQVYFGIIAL
- Test Name: fluorescence anisotropy
Recorded Endpoint: pKd
Just so you know, pKd here is -log10 of the concentration in molar units; reply with that number alone.

Reported pKd for FERSYLKMPWKFLQSRQGSC (modifications not checked) [TNF1-opt (D4S+P5Y+M7K+S11K quadruple mutant of TNF1)] was 5.96
